# measured_on: HCV-NS5b (Hepatitis C virus genotype 1b)
# Construct: (His)6 (C); made in house; host or cells: XL-1 cells (E. coli), IPTG-inducible plasmid
# assay_text: HCV-NS5b enzyme assay using homopolymer substrate
# Type: biochemical
# experimental_setup: homopolymer substrate, [3H]-UTP incorporation, 30° C., 90 minutes; read-out: IC50
outcome_measure: IC50 (nM)

Below, 6 compounds whose answers are already recorded.
INSERT INTO measurements (compound, measured_on, outcome_measure, readout_unit, reading) VALUES
  ('CCN(C)Cc1cn2c3c(ccc(F)c13)-c1c(C3CCCCC3)c3ccc(C(=O)O)cc3n1CCC2', 'HCV-NS5b (Hepatitis C virus genotype 1b)', 'IC50', 'nM', 122),
  ('CCC1CN2CCCn3c(c(C4CCCCC4)c4ccc(C(=O)O)cc43)-c3cccc1c32 (stereo not drawn)', 'HCV-NS5b (Hepatitis C virus genotype 1b)', 'IC50', 'nM', 207),
  ('CC(C)NC1CCN2CCn3c(c(C4CCCCC4)c4ccc(C(=O)O)cc43)-c3cccc1c32 (stereo not drawn)', 'HCV-NS5b (Hepatitis C virus genotype 1b)', 'IC50', 'nM', 65),
  ('NC(=O)c1cc2cccc3c2n1CCCn1c-3c(C2CCCCC2)c2ccc(C(=O)O)cc21', 'HCV-NS5b (Hepatitis C virus genotype 1b)', 'IC50', 'nM', 105),
  ('CCN(CC)CCCc1cn2c3c(cccc13)-c1c(C3CCCCC3)c3ccc(C(=O)O)cc3n1CCC2', 'HCV-NS5b (Hepatitis C virus genotype 1b)', 'IC50', 'nM', 333),
  ('CCN(Cc1cn2c3c(cccc13)-c1c(C3CCCCC3)c3ccc(C(=O)O)cc3n1CCC2)C(C)C', 'HCV-NS5b (Hepatitis C virus genotype 1b)', 'IC50', 'nM', 176);

[a] CC1CN(Cc2cn3c4c(cccc24)-c2c(C4CCCCC4)c4ccc(C(=O)O)cc4n2CCC3)CC(C)O1 (stereo not drawn)
[b] O=C(O)c1ccc2c(C3CCCCC3)c3n(c2c1)CCn1cc(CN2CCCCC2)c2cccc-3c21
Q. // returns a or b , whichever has the lower IC50 State the label of the item chosen.
A. b
(b: 48 nM, a: 113 nM)

[A] CN(C)C(=O)c1cc2cccc3c2n1CCCn1c-3c(C2CCCCC2)c2ccc(C(=O)O)cc21
[B] CN1CCN(CCc2cn3c4c(cccc24)-c2c(C4CCCCC4)c4ccc(C(=O)O)cc4n2CCC3)CC1
Q. // returns A or B , whichever has the lower IC50 State the label of the item chosen.
A. A

[A] O=C(O)c1ccc2c(C3CCCCC3)c3n(c2c1)CCCn1cc(CNCCO)c2cccc-3c21
[B] O=C(O)c1ccc2c(C3CCCCC3)c3n(c2c1)CCCn1cc(CNC2CCCOC2)c2cccc-3c21 (stereo not drawn)
Q. # returns the entry with the larger IC50; inputs A and B State the label of the item chosen.
A. A
(A: 159 nM, B: 94 nM)

====

# measured_on: HCV-NS5b (Hepatitis C virus genotype 1b, UniProt Q9WMX2)
# Construct: (His)6 (C); made in house; host or cells: XL-1 cells (E. coli), IPTG-inducible plasmid
# assay_text: HCV-NS5b enzyme assay using homopolymer substrate
# Format: biochemical
# experimental_setup: homopolymer substrate, [3H]-UTP incorporation, 30° C., 90 minutes; read-out: IC50
# Procedure: The coding sequence of NS5b protein was cloned by PCR from pFKI389luc/NS3-3′/ET as described by Lohmann, V., et al. (1999) Science 285, 110-113 using the primers shown on page 266 of WO 2005/012288 The cloned fragment is missing the C terminus 21 amino acid residues. […] The polymerase activity was assayed by measuring incorporation of radiolabeled UTP into a RNA product using a biotinylated, homopolymeric template. […] Incorporation of radioactivity was determined by scintillation counting. […]
outcome_measure: IC50 (µM)

Below, 5 compounds whose answers are already recorded.
INSERT INTO assay_data (compound, outcome_measure, reading) VALUES
  ('CCN(CC)C1CCN(C(=O)c2cc3cccc4c3n2CCCn2c-4c(C3CCCCC3)c3ccc(C(=O)O)cc32)CC1 [Compound 408]', 'IC50', 0.142),
  ('O=C(O)c1ccc2c(C3CCCCC3)c3n(c2c1)CCCn1cc(C2CCN(CCO)CC2)c2cccc-3c21 [Compound 401]', 'IC50', 0.14),
  ('CCN(C)Cc1cn2c3c(cccc13)-c1c(C3CCCCC3)c3ccc(C(=O)O)cc3n1CC1(CC1)C2 [Compound 428]', 'IC50', 0.166),
  ('N=C(N)c1cn2c3c(cccc13)-c1c(C3CCCCC3)c3ccc(C(=O)O)cc3n1CCC2 [Compound 446]', 'IC50', 0.169),
  ('CC1CCN(Cc2cn3c4c(cccc24)-c2c(C4CCCCC4)c4ccc(C(=O)O)cc4n2CCC3)CC1 [Compound 117]', 'IC50', 0.108);

[P] CC(=O)N1CCN(Cc2cn3c4c(cccc24)-c2c(C4CCCCC4)c4ccc(C(=O)O)cc4n2CCC3)CC1 [Compound 365]
[Q] O=C(O)c1ccc2c(C3CCCCC3)c3n(c2c1)CCCn1c2c-3cccc2c2c(=O)[nH][nH]c(=O)c21 [Compound 416]
Q. # returns the entry with the larger IC50; inputs P and Q State the label of the item chosen.
A. Q
(Q: 0.146 µM, P: 0.088 µM)

====

# measured_on: HCV-NS5b (Hepatitis C virus genotype 1b)
# Construct: (His)6 (C); made in house; host or cells: XL-1 cells (E. coli), IPTG-inducible plasmid
# assay_text: HCV-NS5b enzyme assay using homopolymer substrate
# Format: biochemical
# experimental_setup: homopolymer substrate, [3H]-UTP incorporation, 30° C., 90 minutes; read-out: IC50
outcome_measure: IC50 (nM)

Below, 4 compounds whose answers are already recorded.
INSERT INTO measurements (compound, readout_unit, reading) VALUES
  ('CC1Cn2cc(CN3CCCCC3)c3cccc(c32)-c2c(C3CCCCC3)c3ccc(C(=O)O)cc3n2C1 (stereo not drawn)', 'nM', 126),
  ('N#Cc1cn2c3c(cccc13)-c1c(C3CCCCC3)c3ccc(C(=O)O)cc3n1CCC2', 'nM', 215),
  ('CN(C)CCNCc1cn2c3c(cccc13)-c1c(C3CCCCC3)c3ccc(C(=O)O)cc3n1CCC2', 'nM', 303),
  ('CSCCNCc1cn2c3c(cccc13)-c1c(C3CCCCC3)c3ccc(C(=O)O)cc3n1CCC2', 'nM', 153);

[P] CCN(C)Cc1cn2c3c(cccc13)-c1c(C3CCCCC3)c3ccc(C(=O)OC)cc3n1CCC2
[Q] CCN(C)Cc1c(C(=O)N(C)C)n2c3c(cccc13)-c1c(C3CCCCC3)c3ccc(C(=O)O)cc3n1CCC2
Q. # returns the entry with the larger IC50; inputs P and Q State the label of the item chosen.
A. P
(P: 641 nM, Q: 384 nM)

[A] CCN(C)Cc1cn2c3c(ccc(Cl)c13)-c1c(C3CCCCC3)c3ccc(C(=O)O)cc3n1CCC2
[B] O=C(O)c1ccc2c(C3CCCCC3)c3n(c2c1)CCn1cc(CN2CCCCC2)c2c(F)ccc-3c21
Q. # returns the entry with the larger IC50; inputs A and B State the label of the item chosen.
A. A

[a] CN1CCN(Cc2cn3c4c(ccc(Cl)c24)-c2c(C4CCCCC4)c4ccc(C(=O)O)cc4n2CCC3)CC1
[b] O=C(O)c1ccc2c(C3CCCCC3)c3n(c2c1)CCCn1cc(CCN2CCCCC2)c2cccc-3c21
[c] O=C(O)c1ccc2c(C3CCCCC3)c3n(c2c1)CCN1CCC(NC2CCCCC2)c2cccc-3c21 (stereo not drawn)
[d] CCN(CC)Cc1cn2c3c(nccc13)-c1c(C3CCCCC3)c3ccc(C(=O)O)cc3n1CCC2
Q. Sort the compounds on IC50; start with the lowest figure. Arrange the labels as the request states and list them.
A. c, b, a, d

[P] O=C(O)c1ccc2c(C3CCCCC3)c3n(c2c1)CCCn1cc(CN2CCCCC2)c2c(Cl)ccc-3c21
[Q] O=C(O)c1ccc2c(C3CCCCC3)c3n(c2c1)CCCn1ccc2c(F)ccc-3c21
Q. # returns the entry with the larger IC50; inputs P and Q State the label of the item chosen.
A. P

[1] O=C(O)c1ccc2c(C3CCCCC3)c3n(c2c1)CCCn1cc(Cl)c2cccc-3c21
[2] O=C(O)c1ccc2c(C3CCCCC3)c3n(c2c1)CCCn1cc(CN2CCC(F)CC2)c2cccc-3c21
[3] O=C(O)c1ccc2c(C3CCCCC3)c3n(c2c1)CCCn1cc(CN2CCC(O)C2)c2cccc-3c21 (stereo not drawn)
[4] CCN(C)Cc1cn2c3c(cccc13)-c1c(C3CCCCC3)c3ccc(C(=O)O)cc3n1CC2
Q. Sort the compounds on IC50; start with the lowest figure. Arrange the labels as the request states and list them.
A. 4, 2, 1, 3

[a] CC(C)NCc1cn2c3c(cccc13)-c1c(C3CCCCC3)c3ccc(C(=O)O)cc3n1CCC2
[b] NCc1cc2cccc3c2n1CCCn1c-3c(C2CCCCC2)c2ccc(C(=O)O)cc21
[c] O=C(O)c1ccc2c(C3CCCCC3)c3n(c2c1)CCCn1cc(CN2CCCC2)c2cccc-3c21
Q. Parameters: sort_field (IC50), sort_dir (desc). Arrange the labels as the request states and list them.
A. b, a, c
(b: 144 nM, a: 96 nM, c: 49 nM)

[a] O=C(O)c1ccc2c(C3CCCCC3)c3n(c2c1)CCCn1cc(CN2CC[C@@H](F)C2)c2cccc-3c21
[b] CCCNC1CCN2CCn3c(c(C4CCCCC4)c4ccc(C(=O)O)cc43)-c3cccc1c32 (stereo not drawn)
Q. // returns a or b , whichever has the lower IC50 State the label of the item chosen.
A. b
